target: Glutamate receptor ionotropic, NMDA 2B (Rattus norvegicus, UniProt P35439+Q00960); assay: Negative allosteric modulation of recombinant rat GluN2B receptor expressed in Xenopus laevis oocytes by two-electrode voltage clamp method
Sequence (Q00960 whole entry, one chain of several): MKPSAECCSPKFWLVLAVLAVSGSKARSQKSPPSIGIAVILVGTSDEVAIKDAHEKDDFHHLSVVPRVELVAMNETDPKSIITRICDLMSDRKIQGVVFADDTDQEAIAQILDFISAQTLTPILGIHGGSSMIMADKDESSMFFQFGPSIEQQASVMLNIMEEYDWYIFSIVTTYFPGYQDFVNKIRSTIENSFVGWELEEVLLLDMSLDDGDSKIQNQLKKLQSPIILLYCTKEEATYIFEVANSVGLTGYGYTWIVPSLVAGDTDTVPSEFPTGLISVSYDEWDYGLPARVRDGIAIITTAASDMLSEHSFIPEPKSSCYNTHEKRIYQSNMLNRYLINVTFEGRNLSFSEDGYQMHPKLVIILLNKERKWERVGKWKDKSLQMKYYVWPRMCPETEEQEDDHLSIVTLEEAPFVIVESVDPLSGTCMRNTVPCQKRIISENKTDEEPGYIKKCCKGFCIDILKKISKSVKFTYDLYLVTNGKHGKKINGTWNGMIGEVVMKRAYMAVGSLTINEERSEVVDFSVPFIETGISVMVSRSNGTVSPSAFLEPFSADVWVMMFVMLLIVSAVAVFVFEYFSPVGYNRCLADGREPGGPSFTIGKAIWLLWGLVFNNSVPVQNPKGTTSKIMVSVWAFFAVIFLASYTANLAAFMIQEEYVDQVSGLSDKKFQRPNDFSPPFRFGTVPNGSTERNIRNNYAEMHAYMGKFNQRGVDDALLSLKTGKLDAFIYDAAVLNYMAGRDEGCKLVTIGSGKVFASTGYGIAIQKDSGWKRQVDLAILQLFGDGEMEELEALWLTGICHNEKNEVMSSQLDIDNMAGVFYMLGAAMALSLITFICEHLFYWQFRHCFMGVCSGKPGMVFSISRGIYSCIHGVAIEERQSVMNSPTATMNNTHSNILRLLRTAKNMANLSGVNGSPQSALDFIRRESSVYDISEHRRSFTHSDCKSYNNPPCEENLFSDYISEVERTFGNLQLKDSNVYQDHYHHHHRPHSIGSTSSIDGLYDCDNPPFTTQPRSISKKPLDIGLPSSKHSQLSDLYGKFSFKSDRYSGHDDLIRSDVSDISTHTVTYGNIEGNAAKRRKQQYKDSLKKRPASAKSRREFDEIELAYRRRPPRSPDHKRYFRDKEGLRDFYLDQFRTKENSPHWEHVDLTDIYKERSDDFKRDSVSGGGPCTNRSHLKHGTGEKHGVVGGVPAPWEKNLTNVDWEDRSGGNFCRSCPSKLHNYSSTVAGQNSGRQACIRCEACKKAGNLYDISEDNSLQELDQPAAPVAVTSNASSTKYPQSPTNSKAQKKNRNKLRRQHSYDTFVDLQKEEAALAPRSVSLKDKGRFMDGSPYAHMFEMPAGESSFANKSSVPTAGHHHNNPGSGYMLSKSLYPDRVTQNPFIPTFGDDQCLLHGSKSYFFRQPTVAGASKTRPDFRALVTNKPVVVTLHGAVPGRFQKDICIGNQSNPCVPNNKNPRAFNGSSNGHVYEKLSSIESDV
pIC50: −log10 of the molar value.
MEASURED_PROPERTY: pIC50

Known results for compounds:
1) O=C(O)CCC(=O)N1N=C(c2c(-c3ccc(Cl)cc3)c3ccccc3[nH]c2=O)C[C@H]1c1ccc(Cl)cc1 ... 4.59
2) O=C(O)CCC(=O)N1N=C(c2c(-c3cc(Cl)cc(Cl)c3)c3ccccc3[nH]c2=O)CC1c1ccc(Cl)cc1 (stereo not drawn) ... 4.89
3) O=C(O)CCCC(=O)N1N=C(c2c(-c3ccccc3)c3cc(Cl)ccc3[nH]c2=O)CC1c1ccc([N+](=O)[O-])cc1 (stereo not drawn) ... 4.04
4) Cc1ccc(-c2c(C3=NN(C(=O)CCC(=O)O)C(c4ccc(Cl)cc4)C3)c(=O)[nH]c3ccccc23)cc1 (stereo not drawn) ... 4.38
5) O=C(O)CCC(=O)N1N=C(c2c(-c3cccc(C(F)(F)F)c3)c3ccccc3[nH]c2=O)CC1c1ccc(Cl)cc1 (stereo not drawn) ... 4.33

[A] O=C(O)CCC(=O)N1N=C(c2c(-c3ccccc3)c3cc(Cl)ccc3[nH]c2=O)CC1c1ccc(F)cc1 (stereo not drawn)
[B] O=C(O)CCC(=O)N1N=C(c2c(-c3ccc(C(F)(F)F)cc3)c3ccccc3[nH]c2=O)CC1c1ccc(Cl)cc1 (stereo not drawn)
q: Min pIC50? A | B Refer to your chosen entry by its label in the reply.
a: A

* * *

target: Glutamate receptor ionotropic, NMDA 2A (Rattus norvegicus, UniProt P35439+Q00959); test: Negative allosteric modulation of recombinant rat GluN2A receptor expressed in Xenopus laevis oocytes by two-electrode voltage clamp method
Sequence (Q00959 whole entry, one chain of several): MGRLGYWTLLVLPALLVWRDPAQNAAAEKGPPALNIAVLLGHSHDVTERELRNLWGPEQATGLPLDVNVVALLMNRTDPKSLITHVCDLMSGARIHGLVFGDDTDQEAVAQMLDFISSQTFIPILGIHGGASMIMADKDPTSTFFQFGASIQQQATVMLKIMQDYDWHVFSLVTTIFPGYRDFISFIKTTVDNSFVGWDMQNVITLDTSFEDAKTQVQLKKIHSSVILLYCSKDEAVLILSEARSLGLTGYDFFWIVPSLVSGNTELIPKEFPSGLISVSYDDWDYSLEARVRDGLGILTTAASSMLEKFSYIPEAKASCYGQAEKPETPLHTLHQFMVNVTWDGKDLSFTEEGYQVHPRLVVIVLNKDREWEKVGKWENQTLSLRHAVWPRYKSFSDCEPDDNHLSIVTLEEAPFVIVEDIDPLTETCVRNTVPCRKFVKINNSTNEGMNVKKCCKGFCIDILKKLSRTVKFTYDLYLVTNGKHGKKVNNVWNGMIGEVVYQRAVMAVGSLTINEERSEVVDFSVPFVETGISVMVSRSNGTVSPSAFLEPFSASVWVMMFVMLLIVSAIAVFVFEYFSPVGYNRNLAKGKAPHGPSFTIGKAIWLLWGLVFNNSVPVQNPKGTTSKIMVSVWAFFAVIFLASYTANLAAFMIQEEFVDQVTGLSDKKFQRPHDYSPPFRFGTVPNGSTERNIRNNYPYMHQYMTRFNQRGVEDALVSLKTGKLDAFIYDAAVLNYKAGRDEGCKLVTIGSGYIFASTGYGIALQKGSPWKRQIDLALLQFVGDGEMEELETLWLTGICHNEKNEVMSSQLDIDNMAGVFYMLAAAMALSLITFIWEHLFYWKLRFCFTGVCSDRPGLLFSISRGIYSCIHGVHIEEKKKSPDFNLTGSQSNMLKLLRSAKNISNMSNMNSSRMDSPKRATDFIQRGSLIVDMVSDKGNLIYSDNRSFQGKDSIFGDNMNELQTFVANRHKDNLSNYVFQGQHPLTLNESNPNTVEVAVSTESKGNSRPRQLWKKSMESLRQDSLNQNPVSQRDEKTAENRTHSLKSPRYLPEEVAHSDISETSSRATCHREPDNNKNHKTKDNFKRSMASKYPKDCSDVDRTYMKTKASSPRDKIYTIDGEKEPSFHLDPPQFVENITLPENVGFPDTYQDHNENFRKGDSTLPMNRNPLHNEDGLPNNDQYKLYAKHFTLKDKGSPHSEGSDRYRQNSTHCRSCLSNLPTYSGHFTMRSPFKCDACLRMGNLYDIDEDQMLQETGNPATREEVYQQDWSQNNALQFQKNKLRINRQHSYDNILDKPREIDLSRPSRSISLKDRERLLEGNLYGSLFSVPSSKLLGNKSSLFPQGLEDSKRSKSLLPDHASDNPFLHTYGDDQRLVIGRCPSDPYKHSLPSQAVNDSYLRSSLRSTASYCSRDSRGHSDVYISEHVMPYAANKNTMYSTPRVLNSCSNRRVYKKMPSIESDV
pIC50: −log10 of the molar value.
MEASURED_PROPERTY: pIC50

Known results for compounds:
1. COc1cccc(-c2c(C3=NN(C(=O)CCC(=O)O)C(c4ccc(Cl)cc4)C3)c(=O)[nH]c3ccccc23)c1 (centres undefined) ... 3.96
2. O=C(O)CCC(=O)N1N=C(c2c(-c3cccc(F)c3)c3ccccc3[nH]c2=O)CC1c1ccc(Cl)cc1 (centres undefined) ... 4.34

[a] O=C(O)CCC(=O)N1N=C(c2c(-c3ccc(Br)cc3)c3ccccc3[nH]c2=O)CC1c1ccccc1 (centres undefined)
[b] O=C(O)CCC(=O)N1N=C(c2c(-c3ccc(C(F)(F)F)cc3)c3ccccc3[nH]c2=O)CC1c1ccc(Cl)cc1 (centres undefined)
q: Min pIC50? a | b Refer to your chosen entry by its label in the reply.
a: a

* * *

molecular target: Glutamate receptor ionotropic, NMDA 2B (Rattus norvegicus, UniProt P35439+Q00960); assay: Negative allosteric modulation of recombinant rat GluN2B receptor expressed in Xenopus laevis oocytes by two-electrode voltage clamp method; format: cell-based, Oocyte
pIC50: −log10 of the molar value.
MEASURED_PROPERTY: pIC50

Known results for compounds:
1. O=C(O)CCC(=O)N1N=C(c2c(-c3ccccc3)c3cc(Cl)ccc3[nH]c2=O)CC1c1ccc(C(F)(F)F)cc1 (stereo not drawn) ... 4.27
2. O=C(O)CCCC(=O)N1N=C(c2c(-c3ccc(Br)cc3)c3ccccc3[nH]c2=O)CC1c1ccc(Cl)cc1 (stereo not drawn) ... 4.54
3. COc1ccc(-c2c(C3=NN(C(=O)CCC(=O)O)C(c4ccc(Cl)cc4)C3)c(=O)[nH]c3ccccc23)cc1 (stereo not drawn) ... 4.12
4. O=C(O)CCC(=O)N1N=C(c2c(-c3ccc(F)cc3)c3ccccc3[nH]c2=O)CC1c1ccc(Cl)cc1 (stereo not drawn) ... 4.24
5. O=C(O)CCC(=O)N1N=C(c2c(-c3ccc(Cl)cc3)c3ccccc3[nH]c2=O)CC1c1ccc(Cl)cc1 (racemic) ... 4.66
6. O=C(O)CCC(=O)N1N=C(c2c(-c3ccccc3)c3cc(Cl)ccc3[nH]c2=O)CC1c1ccc2c(c1)OCO2 (stereo not drawn) ... 4.05

[I] O=C(O)CCC(=O)N1N=C(c2c(-c3cccc(Cl)c3)c3ccccc3[nH]c2=O)CC1c1ccc(Cl)cc1 (stereo not drawn)
[II] COc1ccc(C2CC(c3c(-c4ccccc4)c4cc(Cl)ccc4[nH]c3=O)=NN2C(=O)CCC(=O)O)cc1 (stereo not drawn)
q: Min pIC50? I | II Refer to your chosen entry by its label in the reply.
a: II
(II: 3.73, I: 4.37)

Source listed as ChEMBL document CHEMBL2424574.
